Measured values drawn from the NIST ThermoML archive (doi:10.1021/je400260c) for this set.

- conditions.used: Crystal; DTA
I'd be grateful if you could share measured Normal melting temperature for these entries.
Enter your answer as a number in °C; do not include the unit.

Exercise: Which Normal melting temperature reading was recorded for the compound CCCCCCCCCCCCCCCC(=O)O ?
Solution: 63

Exercise: Which Normal melting temperature reading was recorded for the compound CCCCCCCCCCCCCC(=O)O ?
Solution: 54.4

Exercise: Which Normal melting temperature reading was recorded for the compound CCCCCCCCCCCC(=O)O ?
Solution: 44.6

Exercise: Which Normal melting temperature reading was recorded for the compound CCCCCCCCCCCCCCCCCC(=O)O ?
Solution: 69.8
